Target: T1, ECF31_34
T1 chain: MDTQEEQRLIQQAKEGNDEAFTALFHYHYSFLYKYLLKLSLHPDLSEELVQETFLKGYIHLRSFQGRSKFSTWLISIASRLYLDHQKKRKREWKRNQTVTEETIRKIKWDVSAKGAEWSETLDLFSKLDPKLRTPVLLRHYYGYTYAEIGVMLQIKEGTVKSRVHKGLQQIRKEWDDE
Threshold rule: fold repression greater than or equal to 2 is Y; below that, N.

Please review the entries below; each comes with its answer.
Binder | Class label
AS27_4265 (protein) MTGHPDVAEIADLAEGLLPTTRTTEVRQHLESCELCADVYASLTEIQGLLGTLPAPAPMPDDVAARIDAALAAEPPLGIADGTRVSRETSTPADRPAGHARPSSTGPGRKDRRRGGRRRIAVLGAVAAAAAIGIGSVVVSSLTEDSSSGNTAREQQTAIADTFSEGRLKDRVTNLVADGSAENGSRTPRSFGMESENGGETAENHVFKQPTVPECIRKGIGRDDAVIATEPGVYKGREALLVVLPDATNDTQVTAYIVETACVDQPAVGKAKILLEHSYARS | N
AS35_3582 (protein) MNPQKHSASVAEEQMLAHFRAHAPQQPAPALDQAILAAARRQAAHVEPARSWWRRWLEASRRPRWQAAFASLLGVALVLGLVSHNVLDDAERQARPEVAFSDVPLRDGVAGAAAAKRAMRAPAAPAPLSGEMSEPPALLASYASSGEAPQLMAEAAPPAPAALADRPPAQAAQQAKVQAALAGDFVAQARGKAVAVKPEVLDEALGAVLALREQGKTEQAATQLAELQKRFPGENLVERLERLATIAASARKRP | Y
AS16_973 (protein) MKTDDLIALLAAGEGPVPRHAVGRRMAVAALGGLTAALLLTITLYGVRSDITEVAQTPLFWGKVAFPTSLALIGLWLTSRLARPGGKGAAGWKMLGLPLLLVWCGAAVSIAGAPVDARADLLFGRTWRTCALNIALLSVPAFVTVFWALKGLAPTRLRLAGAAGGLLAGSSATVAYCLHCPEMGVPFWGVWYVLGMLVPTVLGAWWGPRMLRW | N

Is it the case that AS37_2513 (protein) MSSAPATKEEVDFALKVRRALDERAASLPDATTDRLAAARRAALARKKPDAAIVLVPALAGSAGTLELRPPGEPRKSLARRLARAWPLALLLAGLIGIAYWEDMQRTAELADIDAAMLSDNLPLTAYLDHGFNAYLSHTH has fold repression reaching or exceeding 2? Y

Further, for AS15_524 (protein) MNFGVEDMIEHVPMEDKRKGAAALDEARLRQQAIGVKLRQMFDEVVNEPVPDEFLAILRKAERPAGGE ? Y
